System: Plasmodium falciparum
Test: GSK_TCMDC: Inhibition of Plasmodium falciparum Dd2 in whole red blood cells, using parasite LDH activity as an index of growth. Test compounds present at 2uM
Type: functional
recorded-metric: Inhibition (%)
Your answer is read as %, so omit the unit and give the number.

(Q) Tell me Inhibition reported for COc1ccc(CCOc2c(C)nc(N)nc2N)cc1OC.Cl
(A) 22

(Q) For the compound COc1cccc(CNC[C@@H](O)[C@H](Cc2ccccc2)NC(=O)c2cc(NC(C)C)cc(N3CCCCS3(=O)=O)c2)c1.O=CO , give its reported Inhibition.
(A) 97

(Q) Look up and report measured Inhibition for this entry: O=C(NCCCCCN1CCC(c2c[nH]c3ccccc23)CC1)c1ccc(Cl)c(Cl)c1
(A) 10

(Q) Note down Inhibition recorded for Cc1nc(NC(=N)N)nc2ccc(C(C)(C)C)cc12.Cl
(A) 91

(Q) Output measured Inhibition for this item: CCCOc1cccc(C(=O)N[C@@H](Cc2ccccc2)[C@H](O)CNCc2ccccc2OC)c1
(A) 61

(Q) Provide only the value of recorded Inhibition for CN(Cc1cc(C(F)(F)F)cc(C(F)(F)F)c1)C(=O)C1CNCC1c1ccc(F)cc1.Cl (stereo not given)
(A) 4

(Q) Supply Inhibition value. Item: O=C(c1cc(C(=O)NC2CCCCC2)c(=O)n(C2CCCCC2)c1)c1cc(F)ccc1O
(A) 98

(Q) Provide only the value of recorded Inhibition for CC(=O)NCCNc1cc(N2CCc3ncnc(Nc4ccc(OCc5c(F)cccc5F)c(Cl)c4)c3C2)ncn1
(A) 100

(Q) Indicate the recorded Inhibition value for this compound: Br.Cc1ccc(OCCCON2C(=N)N=C(N)NC2(C)C)cc1C
(A) 94

(Q) Report Inhibition, nothing else, for this compound: CCCN1CCc2c(sc3nc(SCC(=O)Nc4ccc(C)cc4)n(-c4ccc(C)cc4)c(=O)c23)C1
(A) 71

(Q) Fill in Inhibition for record COc1ccc(NC(=O)[C@H](C)Nc2cc(C)nc(NCC3CCCCC3)n2)cc1.O=C(O)C(F)(F)F
(A) 13

(Q) Dear colleague, please send me the reported Inhibition for Cc1cccc2nc(-c3cccc(-c4ccc(C(=O)NCc5ccccc5S(C)(=O)=O)cc4)c3)[nH]c12 when you can.
(A) 27

(Q) Report measured Inhibition; entry is Fc1ccc(Nc2ccnc3cc(I)ccc23)c(Cl)c1
(A) 24

(Q) Quick one: give measured Inhibition for Cc1cc(Cl)ccc1OC(C)C(=O)N1CCc2ccccc21 (stereo not given)
(A) 78

(Q) Complete the entry with Inhibition for Cc1ccc2[nH]c(C)cc(=NN=Cc3cccc(F)c3)c2c1
(A) 99

(Q) Tell us which Inhibition value is on record for O=C(Nc1ccc(Cn2ncc(N3CCCNCC3)c(Cl)c2=O)cc1)Nc1cc(F)cc(C(F)(F)F)c1.O=C(O)C(F)(F)F
(A) 44

(Q) Using known records, supply Inhibition for CC(C)CCNC(=N)Nc1ccc(OCCCOc2ccc(NC(=N)NCCC(C)C)cc2)cc1
(A) 95

(Q) Write down Inhibition measured for item Nc1c2c(nc3ccc(C(=O)Nc4ccccc4)cc13)CCCC2
(A) 78

(Q) Complete the entry with Inhibition for NC1CCCN(Cc2cccc(-c3cccc(-c4nc5ccccc5[nH]4)c3)c2)C1.O=C(O)C(F)(F)F (stereo not given)
(A) 61

(Q) Read off the recorded Inhibition for Nc1nc(Cc2ccc(Cl)cc2)nc(Cc2ccc(Cl)cc2)n1
(A) 0
